Provide the reported IC90 of each item.
- System: P. aeruginosa PA14 col^R 5 (colistin-resistant strain)
- method-notes: microbe, parasite or virus in culture
- Type: cell-based
- assay-setup: read-out: IC90, synergy with colistin (8 μg/ml); PA14 ColR5, colistin 8 μg/ml (sub-inhibitory); minimum concentration causing at least 90% growth inhibition, 24 h

Examples with answers:
[
  {
    "compound": "Cc1nccc2c1[nH]c1ccccc12 [BBN135, 1-methyl-9H-pyrido[3,4-b]indole]",
    "value-observed": "> 250 µM"
  },
  {
    "compound": "CC(C)=CCc1c(O)cc2c(c1O)C(=O)[C@H](O)[C@@H](c1ccc(O)cc1)O2",
    "value-observed": "> 250 µM"
  },
  {
    "compound": "COC(=O)C1=CO[C@@H](O[C@@H]2O[C@H](CO)[C@@H](O)[C@H](O)[C@H]2O)[C@@H]2[C@@H](C)[C@@H](O)C[C@H]12",
    "value-observed": "> 250 µM"
  }
]

Quick request: IC90 for each listed item, please.
1. O=C(/C=C/c1ccc(O)c(O)c1)O[C@@H]1C[C@](O)(C(=O)O)C[C@@H](O)[C@H]1O
2. C[C@@]12CCC3[C@@](CCC4[C@@]3(C)CCC[C@@]4(C)C(=O)O)(CC1)C2 (stereo partly shown)
3. CC(C)=CCc1c(O)c(C(=O)c2ccccc2)c(O)c2c1OC(C)(C)C=C2
4. C[C@@]12CCC3[C@@](CCC4[C@](C)(COC(=O)C(=O)O)CCC[C@]43C)(CC1)C2 (stereo partly shown)
5. C=CC(C)(C)c1c2c(c3oc4c(O)c(O)ccc4c(=O)c3c1O)C(C)(C)C(C)O2 (stereo not shown)
6. C[C@]12C=C[C@@]3(CCC4[C@@](C)(COC(=O)CCC(=O)O)CCC[C@@]4(C)C3CC1)C2 (stereo partly shown)

1. > 250 µM
2. > 250 µM
3. > 250 µM
4. > 250 µM
5. > 250 µM
6. > 250 µM

// each compound listed below needs its IC90
1. C=C1C[C@@]23CCC4[C@@](C)(CCC[C@@]4(C)C(=O)O)C2CC[C@]1(O)C3 (stereo partly shown) [SR5, 13-hydroxy-kaur-16-en-19-oic acid]
2. COc1cc2ccc(=O)oc2cc1OC/C=C(\C)CCC=C(C)C
3. CC(C)=CCC/C(C)=C/COc1ccc(C(=O)/C=C/c2ccccc2)cc1
4. O=C1c2c(O)cccc2[C@H]([C@@H]2O[C@H](CO)[C@@H](O)[C@H](O)[C@H]2O)c2cc(CO)cc(O)c21

["> 250 µM", "> 250 µM", "> 250 µM", "> 250 µM"]
